assay: Solubility at pH-5.5; format: physicochemical
metric: solubility (mg/mL)

>>> result_number("COCCOCCOCCOC(=O)OC[n+]1ccc(N/C(=N/CCCCCCOc2ccc(Cl)cc2)NC#N)cc1.[Cl-]")
1.2

I. N#CN=C(NCCCCCCOc1ccc(Cl)cc1)Nc1ccncc1
II. COCCOCCOC(=O)OC[n+]1ccc(N/C(=N/CCCCCCOc2ccc(Cl)cc2)NC#N)cc1.[Cl-]
Higher solubility: I or II ? Answer format: the label of the selected item.
II

----------
assay: Solubility at pH-5.5; format: physicochemical
Reported solubility values are given for each entry in this list.

Example entries and their recorded answers appear below.
>>> result("Cl.N#CN/C(=N\\CCCCCCOc1ccc(Cl)cc1)Nc1cc[n+](COC(=O)OCCCCCCCCCN)cc1.[Cl-]")
"> 1200 µg/mL"
>>> result("Cl.N#CN/C(=N\\CCCCCCOc1ccc(Cl)cc1)Nc1cc[n+](COC(=O)NCCCN)cc1.[Cl-]")
"> 1200 µg/mL"

solubility for COCCOCCOCCOCCOC(=O)OC[n+]1ccc(N/C(=N/C#N)NCCCCCCOc2ccc(Cl)cc2)cc1.[Cl-] [TEGLARINAD CHLORIDE] is > 1200 µg/mL
